# Test system: PXR:RXRa (NR concentration 270 nM, RXRa partner concentration 90 nM)
# assay.comment: PBM binding z-score (relative to random genomic background probes); higher = stronger binding; sequences stand for … in GC…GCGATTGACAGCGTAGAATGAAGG
assay.endpoint: PBM binding z-score
One number for each entry.

Answered examples (3):
• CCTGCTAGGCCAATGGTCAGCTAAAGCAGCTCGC = -0.919
• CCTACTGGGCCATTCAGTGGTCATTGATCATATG = -0.597
• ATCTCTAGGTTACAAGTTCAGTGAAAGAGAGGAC = 2.38

Batch: PBM binding z-score for all items listed.
1. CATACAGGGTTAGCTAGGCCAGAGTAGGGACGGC
2. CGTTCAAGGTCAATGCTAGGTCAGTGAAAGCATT

**Result**
-0.275
5.3

Batch: PBM binding z-score for all items listed.
1. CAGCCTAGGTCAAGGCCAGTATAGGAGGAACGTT
2. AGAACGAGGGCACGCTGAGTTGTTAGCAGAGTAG
3. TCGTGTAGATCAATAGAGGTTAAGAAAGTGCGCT
4. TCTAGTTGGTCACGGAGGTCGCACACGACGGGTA
5. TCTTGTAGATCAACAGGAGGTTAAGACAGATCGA
6. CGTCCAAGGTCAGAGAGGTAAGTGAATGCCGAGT
7. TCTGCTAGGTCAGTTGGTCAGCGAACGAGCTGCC

**Result**
1. 1.3
2. 0.851
3. 2.99
4. 1.79
5. 0.727
6. 2.89
7. 0.0473

Batch: PBM binding z-score for all items listed.
1. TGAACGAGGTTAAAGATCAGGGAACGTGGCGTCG
2. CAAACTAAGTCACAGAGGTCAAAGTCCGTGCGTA

**Result**
1.99
5.86

Batch: PBM binding z-score for all items listed.
1. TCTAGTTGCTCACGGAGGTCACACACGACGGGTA
2. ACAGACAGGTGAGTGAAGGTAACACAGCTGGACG
3. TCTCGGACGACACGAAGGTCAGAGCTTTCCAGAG
4. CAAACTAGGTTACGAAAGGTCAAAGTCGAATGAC
5. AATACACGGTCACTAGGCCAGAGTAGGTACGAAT

**Result**
4
-0.00194
1.61
6.22
0.0441

Batch: PBM binding z-score for all items listed.
1. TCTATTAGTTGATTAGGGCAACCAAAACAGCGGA
2. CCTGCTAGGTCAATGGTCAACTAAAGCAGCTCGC
3. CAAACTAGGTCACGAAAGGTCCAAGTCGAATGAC
4. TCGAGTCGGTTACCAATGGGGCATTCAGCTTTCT
5. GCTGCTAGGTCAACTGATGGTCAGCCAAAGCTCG
6. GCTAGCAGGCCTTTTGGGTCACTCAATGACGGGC
7. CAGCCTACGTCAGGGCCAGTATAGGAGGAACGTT

**Result**
1: 0.429; 2: 1.22; 3: 3.32; 4: -0.204; 5: 1.39; 6: 0.137; 7: -0.512

====

# Tested on: PPARg DBDmut:RXRa IVT, anti-PPARg (DBD mutation: PPARg1 K132A/R137A, NR concentration 270 nM, RXRa partner concentration 90 nM)
# assay.comment: PBM binding z-score (relative to random genomic background probes); higher = stronger binding; sequences stand for … in GC…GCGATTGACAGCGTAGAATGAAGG
Assign PBM binding z-score to each entry below.

Answered examples (6):
- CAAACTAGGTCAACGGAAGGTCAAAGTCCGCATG: 4.8
- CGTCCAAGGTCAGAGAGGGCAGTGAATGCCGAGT: -0.519
- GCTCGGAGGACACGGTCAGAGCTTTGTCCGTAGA: -1.69
- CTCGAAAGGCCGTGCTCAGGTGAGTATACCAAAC: -0.959
- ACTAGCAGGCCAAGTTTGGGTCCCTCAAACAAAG: -1.13
- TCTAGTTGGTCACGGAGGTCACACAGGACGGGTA: 0.872

Batch: PBM binding z-score for all items listed.
1. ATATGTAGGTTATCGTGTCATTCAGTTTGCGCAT
2. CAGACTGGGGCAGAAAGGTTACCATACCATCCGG

**Result**
1: 2.49; 2: -0.514

Batch: PBM binding z-score for all items listed.
1. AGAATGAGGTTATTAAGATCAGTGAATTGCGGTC
2. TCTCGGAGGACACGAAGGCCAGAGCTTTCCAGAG
3. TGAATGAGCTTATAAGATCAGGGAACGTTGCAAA
4. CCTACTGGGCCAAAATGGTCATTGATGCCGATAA

**Result**
1. 0.948
2. -0.633
3. 0.471
4. -0.67
